Recorded AST for the following molecules
- Organism: Rattus norvegicus
- Measurement Protocol: Open TG-GATES - Regimen: Single
- Format: toxicity, organism-based, Sprague-Dawley
- Design: regimen Single, gender Male, age 6 weeks
- Assay Conditions: in vivo, po, 0 mg/kg, 9 h, tissue Plasma, route gavage, dose level Control
Numeric answer only, unit IU/L assumed.

Consider the reported AST for these molecules:
COc1cc2c(c(OC)c1OC)-c1ccc(OC)c(=O)cc1[C@@H](NC(C)=O)CC2: 64.4
CCOc1ccc(NC(=O)CC(C)O)cc1 (configuration not stated): 68.6
CC/C(=C(\c1ccccc1)c1ccc(OCCN(C)C)cc1)c1ccccc1: 71.8
COc1ccc2[nH]c([S+]([O-])Cc3ncc(C)c(OC)c3C)nc2c1 (configuration not stated): 59.2
C[C@@H]1C[C@H]2[C@@H]3CCC4=CC(=O)C=C[C@]4(C)[C@@]3(F)[C@@H](O)C[C@]2(C)[C@@]1(O)C(=O)CO: 59.4

Item under review: "NNC(=O)c1ccncc1" . Reported AST?
70

Same question for CC(C)OC(=O)C(C)(C)Oc1ccc(C(=O)c2ccc(Cl)cc2)cc1 [FENOFIBRATE] please.
75.8

Same question for "CN(C)CCCN1c2ccccc2CCc2ccccc21" please.
69.6

====

Recorded KIDNEY_L for the following compounds
- Organism: Rattus norvegicus
- Measurement Protocol: Open TG-GATES - Regimen: Daily Repeat
- Format: toxicity, organism-based, Sprague-Dawley
- Design: regimen Daily Repeat, gender Male, age 6 weeks
- Assay Conditions: in vivo, po, 100 mg/kg, […], tissue Kidney, route gavage, dose level Low, time 14 day
Numeric answer only, unit g assumed.

Consider the reported KIDNEY_L for these compounds:
CCOc1ccc(NC(=O)CC(C)O)cc1 (stereo not given) [BUCETIN]: 1.3
COc1ccc2[nH]c([S+]([O-])Cc3ncc(C)c(OC)c3C)nc2c1 (stereo not given) [OMEPRAZOLE]: 1.3
COC1=CC(=O)C[C@@H](C)[C@]12Oc1c(Cl)c(OC)cc(OC)c1C2=O [GRISEOFULVIN]: 1.2

Item under review: CCOC(=O)CCC(=O)O[C@H]1[C@H](O[C@@H]2[C@@H](C)[C@H](O[C@H]3C[C@@](C)(OC)[C@@H](O)[C@H](C)O3)[C@@H](C)C(=O)O[C@H](CC)[C@@](C)(O)[C@H](O)[C@@H](C)C(=O)[C@H](C)C[C@@]2(C)O)O[C@H](C)C[C@@H]1N(C)C [ERYTHROMYCIN ETHYLSUCCINATE] . Reported KIDNEY_L?
1.2

Same question for NC(N)=Nc1nc(CSCCC(N)=NS(N)(=O)=O)cs1 [FAMOTIDINE] please.
1.2

====

- Species on record: Rattus norvegicus
- Measurement Protocol: Open TG-GATES - Regimen: Daily Repeat
- Assay type: toxicity, organism-based, Sprague-Dawley
- Parameters: regimen Daily Repeat, gender Male, age 6 weeks
- Assay Conditions: in vivo, po, 100 mg/kg, […], tissue Plasma, route gavage, dose level Low, time 14 day
Observable: TG (mg/dL)
Numeric answer only, unit mg/dL assumed.

Consider the reported TG for these molecules:
COc1ccc2[nH]c([S+]([O-])Cc3ncc(C)c(OC)c3C)nc2c1 (stereo not given) [OMEPRAZOLE]: 96.8
COC1=CC(=O)C[C@@H](C)[C@]12Oc1c(Cl)c(OC)cc(OC)c1C2=O [GRISEOFULVIN]: 92.4
NC(N)=Nc1nc(CSCCC(N)=NS(N)(=O)=O)cs1 [FAMOTIDINE]: 111.4
CCOc1ccc(NC(=O)CC(C)O)cc1 (stereo not given) [BUCETIN]: 145

Item under review: CCOC(=O)CCC(=O)O[C@H]1[C@H](O[C@@H]2[C@@H](C)[C@H](O[C@H]3C[C@@](C)(OC)[C@@H](O)[C@H](C)O3)[C@@H](C)C(=O)O[C@H](CC)[C@@](C)(O)[C@H](O)[C@@H](C)C(=O)[C@H](C)C[C@@]2(C)O)O[C@H](C)C[C@@H]1N(C)C [ERYTHROMYCIN ETHYLSUCCINATE] . Reported TG?
102

====

- Species on record: Rattus norvegicus
- Measurement Protocol: Open TG-GATES - Regimen: Daily Repeat
- Type: toxicity, organism-based, Sprague-Dawley
- Set-up: regimen Daily Repeat, gender Male, age 6 weeks
- Assay Conditions: in vivo, po, 1000 mg/kg, […], tissue Plasma, route gavage, dose level High, time 7 day
Recorded AST for the following molecules
Numeric answer only, unit IU/L assumed.

Item under review: NC(N)=Nc1nc(CSCCC(N)=NS(N)(=O)=O)cs1 [FAMOTIDINE] . Reported AST?
69.8

====

Recorded DBIL for the following compounds
- Species: Rattus norvegicus
- Measurement Protocol: Open TG-GATES - Regimen: Daily Repeat
- Format: toxicity, organism-based, Sprague-Dawley
- Parameters: regimen Daily Repeat, gender Male, age 6 weeks
- Assay Conditions: in vivo, po, 0 mg/kg, […], tissue Plasma, route gavage, dose level Control, time 28 day
Numeric answer only, unit mg/dL assumed.

Consider the reported DBIL for these compounds:
CCOc1ccc(NC(=O)CC(C)O)cc1 (centres undefined) [BUCETIN]: 0.022
CN(C)CCN(Cc1cccs1)c1ccccn1: 0.004
NC(N)=Nc1nc(CSCCC(N)=NS(N)(=O)=O)cs1 [FAMOTIDINE]: 0.07

We now examine a further compound.
Item under review: NNC(=O)c1ccncc1 [ISONIAZID] . Reported DBIL?
0.06

====

- Organism: Rattus norvegicus
- Measurement Protocol: Open TG-GATES - Regimen: Single
- Assay type: toxicity, organism-based, Sprague-Dawley
- Parameters: regimen Single, gender Male, age 6 weeks
- Assay Conditions: in vivo, po, 10 mg/kg, 9 h, tissue Plasma, route gavage, dose level Low
Recorded GLC for the following molecules
Numeric answer only, unit mg/dL assumed.

CN(C)CCCN1c2ccccc2CCc2ccc(Cl)cc21: 187.8
CC(C)OC(=O)C(C)(C)Oc1ccc(C(=O)c2ccc(Cl)cc2)cc1 [FENOFIBRATE]: 175.2

Item under review: "CN(C)CCCN1c2ccccc2CCc2ccccc21" . Reported GLC?
181

Same question for "CC1=C(/C=C/C(C)=C/C=C/C(C)=C/CO)C(C)(C)CCC1" please.
187

Same question for "CN(C)CCN(Cc1cccs1)c1ccccn1" please.
171

====

- Species on record: Rattus norvegicus
- Measurement Protocol: Open TG-GATES - Regimen: Daily Repeat
- Format: toxicity, organism-based, Sprague-Dawley
- Design: regimen Daily Repeat, gender Male, age 6 weeks
- Assay Conditions: in vivo, po, 100 mg/kg, 72 h, tissue Plasma, route gavage, dose level Low, time 3 day
Observable: PL (mg/dL)
Numeric answer only, unit mg/dL assumed.

Consider the reported PL for these compounds:
CCOc1ccc(NC(=O)CC(C)O)cc1 (stereo not given) [BUCETIN]: 163.8
COc1ccc2[nH]c([S+]([O-])Cc3ncc(C)c(OC)c3C)nc2c1 (stereo not given) [OMEPRAZOLE]: 145
COC1=CC(=O)C[C@@H](C)[C@]12Oc1c(Cl)c(OC)cc(OC)c1C2=O [GRISEOFULVIN]: 146
NC(N)=Nc1nc(CSCCC(N)=NS(N)(=O)=O)cs1 [FAMOTIDINE]: 136.8

Item under review: CCOC(=O)CCC(=O)O[C@H]1[C@H](O[C@@H]2[C@@H](C)[C@H](O[C@H]3C[C@@](C)(OC)[C@@H](O)[C@H](C)O3)[C@@H](C)C(=O)O[C@H](CC)[C@@](C)(O)[C@H](O)[C@@H](C)C(=O)[C@H](C)C[C@@]2(C)O)O[C@H](C)C[C@@H]1N(C)C [ERYTHROMYCIN ETHYLSUCCINATE] . Reported PL?
130

====

Recorded Neu for the following compounds
- Species on record: Rattus norvegicus
- Measurement Protocol: Open TG-GATES - Regimen: Single
- Assay type: toxicity, organism-based, Sprague-Dawley
- Parameters: regimen Single, gender Male, age 6 weeks
- Assay Conditions: in vivo, po, 0 mg/kg, 9 h, tissue Blood, route gavage, dose level Control
Numeric answer only, unit % assumed.

Consider the reported Neu for these compounds:
CCOC(=O)CCC(=O)O[C@H]1[C@H](O[C@@H]2[C@@H](C)[C@H](O[C@H]3C[C@@](C)(OC)[C@@H](O)[C@H](C)O3)[C@@H](C)C(=O)O[C@H](CC)[C@@](C)(O)[C@H](O)[C@@H](C)C(=O)[C@H](C)C[C@@]2(C)O)O[C@H](C)C[C@@H]1N(C)C [ERYTHROMYCIN ETHYLSUCCINATE]: 15.4
CN1C(=O)CN=C(c2ccccc2)c2cc(Cl)ccc21: 14.4

Item under review: CCOc1ccc(NC(=O)CC(C)O)cc1 (stereo not drawn) . Reported Neu?
16.6

====

Recorded DBIL for the following molecules
- Species on record: Rattus norvegicus
- Measurement Protocol: Open TG-GATES - Regimen: Single
- Assay type: toxicity, organism-based, Sprague-Dawley
- Design: regimen Single, gender Male, age 6 weeks
- Assay Conditions: in vivo, po, 100 mg/kg, 3 h, tissue Plasma, route gavage, dose level High
Numeric answer only, unit mg/dL assumed.

CN(C)CCN(Cc1cccs1)c1ccccn1: 0.002
CN(C)CCCN1c2ccccc2CCc2ccc(Cl)cc21: 0.036

Item under review: "CC1=C(/C=C/C(C)=C/C=C/C(C)=C/CO)C(C)(C)CCC1" . Reported DBIL?
0

Same question for "CN(C)CCCN1c2ccccc2CCc2ccccc21" please.
0.0125
